Measured activity coefficient of individual entries
Assay: activity coefficient (dimensionless); of the first substance listed, at infinite dilution; xn = mol fraction of the nth substance listed
Conditions: 348.15 K; 101.33 kPa; Liquid; Chromatography; x1 = 0
Form field (numeric): enter value without unit.

These solved cases illustrate the format of a correct answer.
[[record]]
molecule = "CCC(C)CC [3-methylpentane] + CCCCCCCCCCCCn1cc[n+](C)c1.O=S(=O)([N-]S(=O)(=O)C(F)(F)F)C(F)(F)F"
measurement_kind = "activity coefficient"
numeric_value = 2.94

[[record]]
molecule = "C1CCCCCC1 [cycloheptane] + CCCCCCCCCCCCn1cc[n+](C)c1.O=S(=O)([N-]S(=O)(=O)C(F)(F)F)C(F)(F)F"
measurement_kind = "activity coefficient"
numeric_value = 2.49

[[record]]
molecule = "CC(C)(C)O [2-methylpropan-2-ol] + CCCCCCCCCCCCn1cc[n+](C)c1.O=S(=O)([N-]S(=O)(=O)C(F)(F)F)C(F)(F)F"
measurement_kind = "activity coefficient"
numeric_value = 0.998


Given item CC#N [acetonitrile] + CCCCCCCCCCCCn1cc[n+](C)c1.O=S(=O)([N-]S(=O)(=O)C(F)(F)F)C(F)(F)F , the value recorded as its activity coefficient is 0.531

Entry C#CCCCC [1-hexyne] + CCCCCCCCCCCCn1cc[n+](C)c1.O=S(=O)([N-]S(=O)(=O)C(F)(F)F)C(F)(F)F — recorded activity coefficient = 1.4

So, CC(C)OC(C)C [diisopropyl ether] + CCCCCCCCCCCCn1cc[n+](C)c1.O=S(=O)([N-]S(=O)(=O)C(F)(F)F)C(F)(F)F ? Its activity coefficient was 1.86

// sample c1ccccc1 [benzene] + CCCCCCCCCCCCn1cc[n+](C)c1.O=S(=O)([N-]S(=O)(=O)C(F)(F)F)C(F)(F)F , its activity coefficient was 0.644

Form: molecule = Cc1cccc(C)c1 [1,3-dimethylbenzene] + CCCCCCCCCCCCn1cc[n+](C)c1.O=S(=O)([N-]S(=O)(=O)C(F)(F)F)C(F)(F)F ; activity coefficient = 1

molecule COC(C)(C)C [2-methoxy-2-methylpropane] + CCCCCCCCCCCCn1cc[n+](C)c1.O=S(=O)([N-]S(=O)(=O)C(F)(F)F)C(F)(F)F , activity coefficient observed: 1.09

Form field activity coefficient, entry CC(C)CC(C)(C)C [2,2,4-trimethylpentane] + CCCCCCCCCCCCn1cc[n+](C)c1.O=S(=O)([N-]S(=O)(=O)C(F)(F)F)C(F)(F)F : 3.79

Briefly, activity coefficient measured for C1CCCCCCC1 [cyclooctane] + CCCCCCCCCCCCn1cc[n+](C)c1.O=S(=O)([N-]S(=O)(=O)C(F)(F)F)C(F)(F)F : 2.84

Field activity coefficient (entry CCOCC [diethyl ether] + CCCCCCCCCCCCn1cc[n+](C)c1.O=S(=O)([N-]S(=O)(=O)C(F)(F)F)C(F)(F)F ) reads 1.12

What the record says about CCC(C)(C)C [2,2-dimethylbutane] + CCCCCCCCCCCCn1cc[n+](C)c1.O=S(=O)([N-]S(=O)(=O)C(F)(F)F)C(F)(F)F : activity coefficient is 3
